IC50 by entry:
Tested on: CFPAC-1
assay summary: Cell viability (CellTiter-Glo) IC50 on tumor cell lines
Type: cell-based
cond: Homo sapiens, 72 h; CFPAC-1, 3 days of culture; read-out: Inhibitory effect on cell line (IC50)
Structures can show the parent of a compound that is named as a salt.
Just the number please, in µM, no unit attached.

compound=C=CCOc1c(OC)ccc2cc3[n+](cc12)CCc1cc2c(cc1-3)OCO2 u=µM measured_value=14.9
compound=COc1ccc2cc3[n+](cc2c1OCC(=O)OC(C)(C)C)CCc1cc2c(cc1-3)OCO2 u=µM measured_value=17.7

**Query** // fetch CFPAC-1 IC50 for COc1ccc2cc3[n+](cc2c1OC)CCc1cc2c(cc1-3)OCO2 [Berberine hydrochloride, reference compound]
**Result** 9.5

**Query** Can you check c1c2c(cc3c1OCO3)-c1cc3ccc4c(c3c[n+]1CC2)OCO4 [Coptisine hydrochloride] next?
**Result** 22.1

**Query** CCCOc1c(OC)ccc2cc3[n+](cc12)CCc1cc2c(cc1-3)OCO2 ?
**Result** 8.3
